Assign IC50 to each entry below.
target: AHAS protein comprising the P197S mutation (Arabidopsis thaliana, UniProt P17597, P197S); assay: biochemical
Sequence (P17597 56-670 P197S): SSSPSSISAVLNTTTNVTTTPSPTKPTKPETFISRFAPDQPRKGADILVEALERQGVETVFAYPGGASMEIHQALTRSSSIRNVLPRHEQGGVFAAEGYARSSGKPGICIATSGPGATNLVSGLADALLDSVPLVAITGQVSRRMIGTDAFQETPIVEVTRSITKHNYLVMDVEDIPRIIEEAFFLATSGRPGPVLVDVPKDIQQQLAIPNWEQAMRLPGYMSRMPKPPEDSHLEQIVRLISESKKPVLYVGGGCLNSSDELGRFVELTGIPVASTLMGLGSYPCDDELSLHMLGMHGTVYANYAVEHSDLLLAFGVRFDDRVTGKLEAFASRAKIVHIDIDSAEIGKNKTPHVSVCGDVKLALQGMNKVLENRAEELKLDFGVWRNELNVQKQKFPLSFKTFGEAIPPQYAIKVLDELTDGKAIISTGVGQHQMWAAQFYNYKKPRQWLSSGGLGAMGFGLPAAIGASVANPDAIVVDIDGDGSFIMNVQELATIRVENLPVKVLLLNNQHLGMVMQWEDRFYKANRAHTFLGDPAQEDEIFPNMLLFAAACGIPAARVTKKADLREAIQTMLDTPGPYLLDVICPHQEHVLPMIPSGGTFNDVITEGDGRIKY
Use µM as the unit, but write only the number.

The recorded IC50 for entry COc1cc(OC)nc(NC(=O)NS(=O)(=O)c2ncccc2C(=O)N(C)C)n1 [Nicosulfuron, nicosulfuron] equals 1

The recorded IC50 for entry COc1cc(OC)nc(NC(=O)NS(=O)(=O)c2cc(NC=O)ccc2C(=O)N(C)C)n1 [Foramsulfuron, foramsulfuron] equals 0.1

The recorded IC50 for entry COc1cc(OC)n2nc(S(=O)(=O)Nc3c(Cl)ccc(C)c3Cl)nc2n1 [Metosulam, metosulam] equals 1.58

The recorded IC50 for entry CCS(=O)(=O)c1cccnc1S(=O)(=O)NC(=O)Nc1nc(OC)cc(OC)n1 [Rimsulfuron, rimsulfuron] equals 0.398

###

molecular target: AHAS protein comprising the P197S mutation (Arabidopsis thaliana, UniProt P17597, P197S); test: biochemical
Binarize IC50 at 0.1 µM; below is yes (1), at or above is no (0).

IC50 under 0.1 µM? Item: COCc1cnc(C2=NC(C)(C(C)C)C(=O)N2)c(C(=O)O)c1 (stereo not drawn)
no (0)

IC50 under 0.1 µM? Item: COC(=O)c1sccc1S(=O)(=O)NC(=O)Nc1nc(C)nc(OC)n1
no (0)

IC50 under 0.1 µM? Item: COc1cc(OC)nc(Oc2cccc(Oc3nc(OC)cc(OC)n3)c2C(=O)O)n1 [Bispyribac-sodium, bispyribac-sodium]
yes (1)

IC50 under 0.1 µM? Item: COc1cc(OC)nc(NC(=O)NS(=O)(=O)N(C)S(C)(=O)=O)n1
no (0)

IC50 under 0.1 µM? Item: CCS(=O)(=O)c1nc2ccccn2c1S(=O)(=O)NC(=O)Nc1nc(OC)cc(OC)n1
no (0)

###

target: mixture of two ALS proteins, one comprising the P197S and the other the W574L mutation (Arabidopsis thaliana, UniProt P17597, P197S/W574L); experiment: biochemical; conditions: calculated mixture of two ALS proteins, relative to WT
MEASURED PARAMETER: Resistance Factor P197S & W574L (mixture)
Give the figure only, with no unit attached.

The recorded Resistance Factor P197S & W574L (mixture) for entry COc1cc(OC)nc(Oc2cccc(Oc3nc(OC)cc(OC)n3)c2C(=O)O)n1 [Bispyribac-sodium, bispyribac-sodium] equals 40

The recorded Resistance Factor P197S & W574L (mixture) for entry COc1cc(OC)nc(NC(=O)NS(=O)(=O)c2ncccc2C(F)(F)F)n1 equals 794

The recorded Resistance Factor P197S & W574L (mixture) for entry CCS(=O)(=O)c1nc2ccccn2c1S(=O)(=O)NC(=O)Nc1nc(OC)cc(OC)n1 equals 10000

The recorded Resistance Factor P197S & W574L (mixture) for entry COCc1cnc(C2=NC(C)(C(C)C)C(=O)N2)c(C(=O)O)c1 (stereo not shown) equals 20

###

target: AHAS protein comprising both the P197S and W574L mutation in one ALS protein (Arabidopsis thaliana, UniProt P17597, P197S/W574L); assay type: biochemical; conditions: both mutations in one ALS protein, relative to WT
Sequence (P17597 56-670 P197S/W574L): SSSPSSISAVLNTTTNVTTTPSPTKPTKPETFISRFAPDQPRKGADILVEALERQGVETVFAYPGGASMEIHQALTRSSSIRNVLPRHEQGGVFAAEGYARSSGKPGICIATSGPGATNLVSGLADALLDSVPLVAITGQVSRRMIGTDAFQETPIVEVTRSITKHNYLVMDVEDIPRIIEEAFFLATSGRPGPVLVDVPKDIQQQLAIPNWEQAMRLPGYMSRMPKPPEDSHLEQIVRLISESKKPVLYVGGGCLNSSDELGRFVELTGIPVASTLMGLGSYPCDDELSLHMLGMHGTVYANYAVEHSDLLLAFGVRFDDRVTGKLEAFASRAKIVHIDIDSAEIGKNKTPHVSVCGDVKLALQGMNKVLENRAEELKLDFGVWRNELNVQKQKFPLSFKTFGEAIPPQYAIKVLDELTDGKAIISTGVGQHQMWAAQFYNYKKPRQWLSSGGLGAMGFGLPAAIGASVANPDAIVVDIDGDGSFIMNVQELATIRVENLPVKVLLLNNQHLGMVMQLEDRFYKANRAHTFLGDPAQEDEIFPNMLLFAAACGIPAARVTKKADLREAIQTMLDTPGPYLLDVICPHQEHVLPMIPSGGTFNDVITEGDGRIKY
Assign Resistance Factor P197S-W574L (in one protein) to each entry below.

The recorded Resistance Factor P197S-W574L (in one protein) for entry CCCOc1nn(C(=O)[N-]S(=O)(=O)c2ccccc2C(=O)OC)c(=O)n1C.[Na+] [Propoxycarbazone] equals >4641

The recorded Resistance Factor P197S-W574L (in one protein) for entry COc1cc(OC)nc(NC(=O)NS(=O)(=O)c2ncccc2C(F)(F)F)n1 [Flazasulfuron, flazasulfuron] equals >120226

The recorded Resistance Factor P197S-W574L (in one protein) for entry COC(=O)c1ccc(CNS(C)(=O)=O)cc1S(=O)(=O)NC(=O)Nc1nc(OC)cc(OC)n1 [Mesosulfuron-methyl, mesosulfuron-methyl] equals >64730

The recorded Resistance Factor P197S-W574L (in one protein) for entry COc1cc(OC)nc(Oc2cccc(Oc3nc(OC)cc(OC)n3)c2C(=O)O)n1 [Bispyribac-sodium, bispyribac-sodium] equals >5623

The recorded Resistance Factor P197S-W574L (in one protein) for entry COc1ncc(F)c2nc(S(=O)(=O)Nc3c(F)cccc3F)nn12 [Florasulam, florasulam] equals >6918

The recorded Resistance Factor P197S-W574L (in one protein) for entry CCS(=O)(=O)c1cccnc1S(=O)(=O)NC(=O)Nc1nc(OC)cc(OC)n1 [Rimsulfuron, rimsulfuron] equals >4466

The recorded Resistance Factor P197S-W574L (in one protein) for entry COc1cc(OC)nc(NC(=O)NS(=O)(=O)c2cc(NC=O)ccc2C(=O)N(C)C)n1 [Foramsulfuron, foramsulfuron] equals >11748

The recorded Resistance Factor P197S-W574L (in one protein) for entry COC(=O)c1csc(C)c1S(=O)(=O)NC(=O)n1nc(OC)n(C)c1=O [Thiencarbazone-methyl, thiencarbazone-methyl] equals >7399

The recorded Resistance Factor P197S-W574L (in one protein) for entry COc1cc(OC)nc(NC(=O)NS(=O)(=O)N(C)S(C)(=O)=O)n1 [Amidosulfuron, amidosulfuron] equals >488

The recorded Resistance Factor P197S-W574L (in one protein) for entry COC(=O)c1ccc(C(F)(F)F)nc1S(=O)(=O)NC(=O)Nc1nc(OC)cc(OC)n1 [Flupyrsulfuron-methyl] equals >47863

The recorded Resistance Factor P197S-W574L (in one protein) for entry COc1cc(OC)n2nc(S(=O)(=O)Nc3c(Cl)ccc(C)c3Cl)nc2n1 [Metosulam, metosulam] equals >28840

The recorded Resistance Factor P197S-W574L (in one protein) for entry COc1cc(OC)n2nc(NS(=O)(=O)c3c(C(F)(F)F)ccnc3OC)nc2n1 [Pyroxsulam, pyroxsulam] equals >41368

The recorded Resistance Factor P197S-W574L (in one protein) for entry COc1cc(OC)nc(NC(=O)NS(=O)(=O)c2ncccc2C(=O)N(C)C)n1 [Nicosulfuron, nicosulfuron] equals >607

The recorded Resistance Factor P197S-W574L (in one protein) for entry COC(=O)c1sccc1S(=O)(=O)NC(=O)Nc1nc(C)nc(OC)n1 [Thifensulfuron-Methyl, thifensulfuron-methyl] equals >2511

###

Assign Resistance Factor P197S-W574L (in one protein) to each entry below.
biological target: AHAS protein comprising both the P197S and W574L mutation in one ALS protein (Arabidopsis thaliana, UniProt P17597, P197S/W574L); assay type: biochemical; conditions: both mutations in one ALS protein, relative to WT

The recorded Resistance Factor P197S-W574L (in one protein) for entry COCc1cnc(C2=NC(C)(C(C)C)C(=O)N2)c(C(=O)O)c1 (stereo not shown) equals >22

The recorded Resistance Factor P197S-W574L (in one protein) for entry CCS(=O)(=O)c1nc2ccccn2c1S(=O)(=O)NC(=O)Nc1nc(OC)cc(OC)n1 equals >4641

The recorded Resistance Factor P197S-W574L (in one protein) for entry COC(=O)c1ccccc1S(=O)(=O)NC(=O)Nc1nc(C)nc(OC)n1 equals >7547

The recorded Resistance Factor P197S-W574L (in one protein) for entry COC(=O)c1ccc(I)cc1S(=O)(=O)[N-]C(=O)Nc1nc(C)nc(OC)n1.[Na+] [Iodosulfuron-methy-sodium, iodosulfuron-methyl-sodium] equals >35030

###

Assign Resistance Factor P197S & W574L (mixture) to each entry below.
target: mixture of two ALS proteins, one comprising the P197S and the other the W574L mutation (Arabidopsis thaliana, UniProt P17597, P197S/W574L); assay: biochemical; conditions: calculated mixture of two ALS proteins, relative to WT
Give the figure only, with no unit attached.

The recorded Resistance Factor P197S & W574L (mixture) for entry COC(=O)c1csc(C)c1S(=O)(=O)NC(=O)n1nc(OC)n(C)c1=O [Thiencarbazone-methyl, thiencarbazone-methyl] equals 1259

The recorded Resistance Factor P197S & W574L (mixture) for entry COC(=O)c1ccc(CNS(C)(=O)=O)cc1S(=O)(=O)NC(=O)Nc1nc(OC)cc(OC)n1 [Mesosulfuron-methyl, mesosulfuron-methyl] equals 794

The recorded Resistance Factor P197S & W574L (mixture) for entry COc1cc(OC)nc(NC(=O)NS(=O)(=O)c2ncccc2C(=O)N(C)C)n1 [Nicosulfuron, nicosulfuron] equals 251

###

Assign Resistance Factor P197S & W574L (mixture) to each entry below.
target: mixture of two ALS proteins, one comprising the P197S and the other the W574L mutation (Arabidopsis thaliana, UniProt P17597, P197S/W574L); experiment: biochemical; settings: calculated mixture of two ALS proteins, relative to WT
Give the figure only, with no unit attached.

The recorded Resistance Factor P197S & W574L (mixture) for entry CCCOc1nn(C(=O)[N-]S(=O)(=O)c2ccccc2C(=O)OC)c(=O)n1C.[Na+] equals 200

The recorded Resistance Factor P197S & W574L (mixture) for entry COc1ncc(F)c2nc(S(=O)(=O)Nc3c(F)cccc3F)nn12 equals 200

The recorded Resistance Factor P197S & W574L (mixture) for entry COc1cc(OC)n2nc(S(=O)(=O)Nc3c(Cl)ccc(C)c3Cl)nc2n1 equals 2512

The recorded Resistance Factor P197S & W574L (mixture) for entry COC(=O)c1sccc1S(=O)(=O)NC(=O)Nc1nc(C)nc(OC)n1 equals 631
